Values compiled from patent US10227373B2.

experiment: in vitro; settings: human
Measured parameter: CC50

Query: CC50; subject: `Nc1ncnc2c1ncn2C1=C[C@@H](CO)[C@H](O)[C@@H]1O` > 300 µM

====

tested on: HBV; test: microbe, parasite or virus in culture; type: cell-based, hepatitis B virus; conditions: Hepatitis B virus
Measured parameter: pEC50
Remember the convention: pEC50 equals -log10 of concentration in molar.

Query: pEC50; subject: `Nc1ncnc2c1ncn2C1=C[C@H](CO)[C@@H](O)[C@H]1O` 5.14

====

biological target: S-adenosylhomocysteine hydrolase (SAHase) (Oryctolagus cuniculus)
Sequence (A0A5F9DS62 1-428): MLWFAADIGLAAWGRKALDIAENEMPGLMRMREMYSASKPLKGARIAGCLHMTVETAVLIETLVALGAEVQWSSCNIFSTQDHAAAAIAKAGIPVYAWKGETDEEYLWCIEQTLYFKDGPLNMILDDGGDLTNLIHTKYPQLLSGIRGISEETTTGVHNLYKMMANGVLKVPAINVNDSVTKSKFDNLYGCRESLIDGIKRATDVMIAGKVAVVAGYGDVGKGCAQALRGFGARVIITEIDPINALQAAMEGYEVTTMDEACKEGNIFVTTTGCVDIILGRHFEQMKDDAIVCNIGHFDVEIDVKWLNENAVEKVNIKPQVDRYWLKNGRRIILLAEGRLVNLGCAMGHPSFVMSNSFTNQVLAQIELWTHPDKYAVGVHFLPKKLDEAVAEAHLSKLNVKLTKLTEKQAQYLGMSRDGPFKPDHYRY
Measured parameter: pIC50
Remember the convention: pIC50 equals -log10 of concentration in molar.

Query: pIC50; subject: `Nc1ncc(Br)c2c1ncn2[C@@H]1C=C(CO)[C@@H](O)[C@H]1O` 8.57
